Test system: Candida parapsilosis SUN05
The entries below come with measured MIC values attached.

Below, each entry is followed by its recorded MIC result.
[
  {
    "COMPOUND": "O=C(O)CCCCCCCCCCCCCC(O)CO[C@@H]1O[C@H](COC(=O)O)[C@@H](O[C@@H]2O[C@H](CO)[C@@H](O)[C@H](O)[C@H]2OC(=O)CC(O)CCO)[C@H](O)[C@H]1O (stereo partly drawn)",
    "EXPERIMENTAL RESULT": "125 µg/mL"
  },
  {
    "COMPOUND": "CCCCCC(O)CC(=O)O[C@H]1[C@H](O[C@H]2[C@H](O)[C@@H](O)[C@H](OCC(O)CCCCCCCCCCCCC(O)C(=O)O)O[C@@H]2COC(C)=O)O[C@H](CO)[C@@H](O)[C@@H]1O (stereo partly drawn)",
    "EXPERIMENTAL RESULT": "≤ 125 µg/mL"
  },
  {
    "COMPOUND": "CCCCCCCC(=O)O[C@H]1[C@H](O[C@H]2[C@H](O)[C@@H](O)[C@H](OCC(O)CCCCCCCCCCCCC(O)C(=O)O)O[C@@H]2COC(C)=O)O[C@H](CO)[C@@H](O)[C@@H]1O (stereo partly drawn)",
    "EXPERIMENTAL RESULT": "≤ 31.2 µg/mL"
  },
  {
    "COMPOUND": "O=C(O)OC[C@H]1O[C@@H](OCC(O)CCCCCCCCCCC/C=C(\\O)C(=O)O)[C@H](O)[C@@H](O)[C@@H]1O[C@@H]1O[C@H](CO)[C@@H](O)[C@H](O)[C@H]1OC(=O)CC(O)CCO (stereo partly drawn)",
    "EXPERIMENTAL RESULT": "500 µg/mL"
  },
  {
    "COMPOUND": "O=C(O)OC[C@H]1O[C@@H](OCC(O)CCCCCCCCCCCCC(O)C(=O)O)[C@H](O)[C@@H](O)[C@@H]1O[C@@H]1O[C@H](CO)[C@@H](O)[C@H](O)[C@H]1O (stereo partly drawn)",
    "EXPERIMENTAL RESULT": "500 µg/mL"
  }
]

Please look at the following compound next.
Request: # get_value(readout='MIC', item= CCCC(O)CC(=O)O[C@H]1[C@H](O[C@H]2[C@H](O)[C@@H](O)[C@H](OCC(O)CCCCCCCCCCCCC(O)C(=O)O)O[C@@H]2COC(C)=O)O[C@H](CO)[C@@H](O)[C@@H]1O (stereo partly drawn) )
Response: ≤ 125 µg/mL
